Provenance of the data: patent US20190106460A1

Biological target: T1, βTrCP (tag cleaved and complexed with Skp1) (UniProt Q9Y297 175-605; P63208 1-163)
T1 construct: Protein of the FP assay (0.035 µM); also called Beta Transducin repeat-containing protein; βTrCP/Skp1
T1 sequence (Q9Y297 175-605, chain 1 of 2): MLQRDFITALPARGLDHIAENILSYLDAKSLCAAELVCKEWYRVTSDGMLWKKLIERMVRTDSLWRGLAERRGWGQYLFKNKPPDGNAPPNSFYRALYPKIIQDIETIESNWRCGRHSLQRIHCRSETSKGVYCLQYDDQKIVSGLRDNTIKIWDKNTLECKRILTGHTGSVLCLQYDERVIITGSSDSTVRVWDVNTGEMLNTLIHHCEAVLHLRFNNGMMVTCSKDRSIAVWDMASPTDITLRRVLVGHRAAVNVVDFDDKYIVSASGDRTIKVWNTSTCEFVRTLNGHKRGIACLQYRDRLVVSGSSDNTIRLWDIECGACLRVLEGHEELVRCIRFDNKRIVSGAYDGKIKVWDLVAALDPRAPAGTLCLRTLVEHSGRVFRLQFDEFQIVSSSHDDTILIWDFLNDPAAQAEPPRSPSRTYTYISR
T1 sequence (P63208 whole entry, chain 2 of 2): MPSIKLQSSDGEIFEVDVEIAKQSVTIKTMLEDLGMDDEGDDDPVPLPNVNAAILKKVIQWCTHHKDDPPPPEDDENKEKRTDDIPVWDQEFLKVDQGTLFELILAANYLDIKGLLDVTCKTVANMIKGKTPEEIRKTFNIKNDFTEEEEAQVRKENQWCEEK
Experiment: FP competition vs fluorescein-IκB peptide
Starred links: 1 amine or outer side, 2 acyl side, 3 side chain; linkers in the order of their positions; H or OH if unused. Non-standard residues stand in square brackets, D forms with d. Phe(4-NO2) = N[C@@H](Cc1ccc([N+](=O)[O-])cc1)C(=O)O; Phe(4-F) = N[C@@H](Cc1ccc(F)cc1)C(=O)O; Suc = O=C(CCC(=O)[*:2])[*:1]
Measurement Name: IC50

Suc-EG[Phe(4-NO2)][Phe(4-NO2)]-NH2 (SMILES NC(=O)[C@H](Cc1ccc([N+](=O)[O-])cc1)NC(=O)[C@H](Cc1ccc([N+](=O)[O-])cc1)NC(=O)CNC(=O)[C@H](CCC(=O)O)NC(=O)CCC(=O)O) [Suc-EG-F(4NO2)-F(4NO2)-NH2]: 78 µM

Could you now consider this next binder?
Prompt: Looking for the measured IC50 of Suc-EGY[Phe(4-F)]-NH2 (SMILES NC(=O)[C@H](Cc1ccc(F)cc1)NC(=O)[C@H](Cc1ccc(O)cc1)NC(=O)CNC(=O)[C@H](CCC(=O)O)NC(=O)CCC(=O)O) [Suc-EGY-F(4F)-NH2] , can you help?
Response: 71 µM
